This section presents molecules with their documented GI50 values.
# Test system: SK-BR-3 cancer cells
# ASSAY_SUMMARY: Inhibitory activity against proliferation of SK-BR-3 cancer cells (CellTiter-Glo)
# Assay type: cell-based
# APPLIED_CONDITIONS: Homo sapiens, SK-BR-3, 120 h, ErbB2-overexpressing SK-BR-3 cells, 120 hours after treatment
OBSERVATION_TYPE: GI50

# MOLECULE, TESTED_SYSTEM, VALUE_MEASURED
records = [
    ("C=CC(=O)Nc1cc(Nc2cc(N3OCC[C@@H]3c3cccc(-c4ccccc4)c3)ncn2)c(OC)cc1N1CCO[C@H](C)C1 [Example 176]", "SK-BR-3 cancer cells", "< 50 nM"),
    ("C=CC(=O)Nc1cc(Nc2cc(N3OCC[C@@H]3c3cccc(C#Cc4cccc(O)c4)c3)ncn2)c(OC)cc1N1CCN(C)CC1 [Example 315]", "SK-BR-3 cancer cells", "500 to 5000 nM"),
    ("C=CC(=O)Nc1cc(Nc2cc(N3OCCC3c3cccc(-c4cccc(F)c4)c3)ncn2)c(OC)cc1N1CCN(C)CC1 (stereo not shown) [Example 211]", "SK-BR-3 cancer cells", "50 to 500 nM"),
    ("C=CC(=O)Nc1cc(Nc2cc(N3OCC[C@H]3c3cccc(-c4cccc(F)c4)c3)ncn2)c(OC)cc1N1CCN(C)CC1 [Example 241]", "SK-BR-3 cancer cells", "500 to 5000 nM"),
    ("C=CC(=O)Nc1cc(Nc2cc(N3OCC[C@@H]3c3cc(F)cc(-c4ncnn4C)c3)ncn2)c(OC)cc1N(C)CCN(C)C [Example 240]", "SK-BR-3 cancer cells", "< 50 nM"),
    ("C=CC(=O)Nc1cc(Nc2cc(N3OCCC3c3cccc(-c4cnn(C)c4)c3)ncn2)c(OC)cc1N1CCN(C)CC1 (stereo not shown) [Example 232]", "SK-BR-3 cancer cells", "< 50 nM"),
    ("C=CC(=O)Nc1cc(Nc2cc(N3OCCC3c3cccc(C#Cc4ccccc4)c3)ncn2)c(OC)cc1N1CCN(C)CC1 (stereo not shown) [Example compound 137]", "SK-BR-3 cancer cells", "50 to 500 nM"),
    ("C=CC(=O)Nc1cc(Nc2cc(N3OCC[C@@H]3c3cccc(-c4cccc(F)c4)c3)ncn2)c(OC)cc1N1CCN(CCN(C)C)CC1 [Example 304]", "SK-BR-3 cancer cells", "< 50 nM"),
    ("C=CC(=O)Nc1cc(Nc2cc(N3OCC[C@@H]3c3cccc(-c4cccc(F)c4)c3)ncn2)c(OC)cc1N1C[C@H]2C[C@@H]1CO2 [Example 287]", "SK-BR-3 cancer cells", "< 50 nM"),
    ("C=CC(=O)Nc1cc(Nc2cc(N3OCC[C@@H]3c3cccc(-c4cccc(F)c4)c3)ncn2)c(OC)cc1N1C[C@H]2C[C@@H]1CN2C [Example 306]", "SK-BR-3 cancer cells", "< 50 nM"),
    ("C=CC(=O)Nc1cc(Nc2cc(N3OCC[C@@H]3c3cc(F)cc(Oc4ccn(C)n4)c3)ncn2)c(OC)cc1N1CCN(C)CC1 [Example 217]", "SK-BR-3 cancer cells", "50 to 500 nM"),
    ("C=CC(=O)Nc1cc(Nc2cc(N3OCC[C@@H]3c3cccc(-c4cnc(C)c(F)c4)c3)ncn2)c(OC)cc1N(C)CCN(C)C [Example 303]", "SK-BR-3 cancer cells", "< 50 nM"),
    ("C=CC(=O)Nc1cc(Nc2cc(N3OCC[C@@H]3c3cccc(-c4ccc(O)nc4)c3)ncn2)c(OC)cc1N(C)CCN(C)C [Example 301]", "SK-BR-3 cancer cells", "50 to 500 nM"),
    ("C=CC(=O)Nc1cc(Nc2cc(N3OCC[C@@H]3c3cccc(C(=O)NC(C)C)c3)ncn2)c(OC)cc1N1CCN(C)CC1 [Example 246]", "SK-BR-3 cancer cells", "< 50 nM"),
    ("C=CC(=O)Nc1cc(Nc2cc(N3OCC[C@@H]3c3cccc(-c4cccc(F)c4)c3)ncn2)c(OC)cc1N1CC2CN(C)CC2C1 (stereo partly shown) [Example 319]", "SK-BR-3 cancer cells", "< 50 nM"),
    ("C=CC(=O)Nc1cc(Nc2cc(N3OCC[C@@H]3c3cccc(C#CC(C)(C)C)c3)ncn2)c(OC)cc1N(C)CCN(C)C [Example 305]", "SK-BR-3 cancer cells", "< 50 nM"),
    ("C=CC(=O)Nc1cc(Nc2cc(N3OCC[C@@H]3c3ccc(C)c(OCc4cccc(F)c4)c3)ncn2)c(OC)cc1N(C)CCN(C)C [Example 257]", "SK-BR-3 cancer cells", "< 50 nM"),
    ("C=CC(=O)Nc1cc(Nc2cc(N3OCC[C@H]3c3cccc(OCc4cccc(F)c4)c3)ncn2)c(OC)cc1N(C)CCN(C)C [Example 229]", "SK-BR-3 cancer cells", "50 to 500 nM"),
    ("C=CC(=O)Nc1cc(Nc2cc(N3OCC[C@@H]3c3cccc(-c4cccc(F)c4)c3)ncn2)c(OC)cc1N1CC2(CNC2)C1 [Example 321]", "SK-BR-3 cancer cells", "50 to 500 nM"),
    ("C=CC(=O)Nc1cc(Nc2cc(N3OCCC3c3cccc(OCc4ccccn4)c3)ncn2)c(OC)cc1N1CCN(C)CC1 (stereo not shown) [Example compound 96]", "SK-BR-3 cancer cells", "< 50 nM"),
    ("C=CC(=O)Nc1cc(Nc2cc(N3OCCC3c3cccc(-c4cc(F)cc(F)c4)c3)ncn2)c(OC)cc1N1CCC(N2CCN(C3CC3)CC2)CC1 (stereo not shown) [Example 249]", "SK-BR-3 cancer cells", "50 to 500 nM"),
    ("C=CC(=O)Nc1cc(Nc2cc(N3OCC[C@@H]3c3cccc(-c4cc(F)cc(F)c4)c3)ncn2)c(OC)cc1N1CCC(N2CCOCC2)CC1 [Example 272]", "SK-BR-3 cancer cells", "< 50 nM"),
    ("C=CC(=O)Nc1cc(Nc2cc(N3OCC[C@@H]3c3cc(F)cc(-c4ccco4)c3)ncn2)c(OC)cc1N1CCC(N2CCN(C3CC3)CC2)CC1 [Example compound 134]", "SK-BR-3 cancer cells", "< 50 nM"),
    ("C=CC(=O)Nc1cc(Nc2cc(N3OCC[C@@H]3c3cc(F)cc(-c4cccc5ncnn45)c3)ncn2)c(OC)cc1N(C)CCN(C)C [Example 210]", "SK-BR-3 cancer cells", "< 50 nM"),
    ("C=CC(=O)Nc1cc(Nc2cc(N3OCCC3c3cccc(OCc4ccccn4)c3)ncn2)c(OC)cc1N1CC[C@@H](N(C)C)C1 (stereo partly shown) [Example compound 97]", "SK-BR-3 cancer cells", "< 50 nM"),
]

Values were extracted from patent US20240262815A1.
